Assay: NCI Yeast Anticancer Drug Screen. Data for the rad50 strain (AID 155)
Details: S. cerevisiae rad50 strain growth inhibition; at 50.0 µM
This is part of a sample that, as a whole, favours compounds with a hit. Of some 79,000 tested, about 15% had one in any assay. Active and inactive are the calls of the source. No stated cut-off is given here; in the data, active means growth inhibition above about 70%; inactive means the rest. Where a SMILES comes first, the peptide text is derived from it. Bridges are numbered along the chain shown (N, C = ends). [ ]: non-standard residue; d: D form. NMeV = CN[CH](C(=O)O)C(C)C; Sar = CNCC(=O)O
Outcomes: active, inactive

compound	classLabel
Cc1ccc(S(=O)(=O)OCCCCOS(=O)(=O)c2ccc(C)cc2)cc1	active
COc1ccc(C(C)(C)c2cc3c(cc2OCCO)OCO3)cc1	active
Cc1cc(SCC(=O)c2ccccc2)cc(C)[o+]1	active
CC(C)C1NC(=O)C(N)C(C)OC(=O)C(C(C)C)N(C)C(=O)CN(C)C(=O)C2CCCN2C1=O (stereo not given) (tested in a mixture with another compound) (H-TVP[Sar][NMeV]; ester 1-C; configuration not given here)	active
CNCC(O)c1cccc(O)c1 (stereo not given)	active
Cc1c[nH]c(C(=O)O)c1-c1ccc2c(-c3ccccc3)nc3ccccc3n12	active
Oc1ccc(O)c(C2CCCCC2)c1	active
CCCCCCCCCCCCCC(=O)CBr	active
Cc1ccc(C)c(C(=O)CCN)c1	inactive
COc1cccc2c1OC(c1ccc(C#N)cc1)C([N+](=O)[O-])=C2 (stereo not given)	active
